Target: HLA-B*27:03
Assay: IEDB peptide-MHC binding, purified MHC/competitive/fluorescence; filed as Kd, often an IC50 or EC50 that approximates it; bounds were set here for any values at or beyond the usual limits of such assays
Conditions: source organism: Burkholderia pseudomallei K96243
Property name: Kd

q: Return value of Kd for input SELTVSPPD , no commentary.
a: ≥ 20 µM

----------
Target: HLA-A*30:02
Test: IEDB peptide-MHC binding, purified MHC/competitive/radioactivity; filed as Kd, often an IC50 or EC50 that approximates it; bounds were set here for any values at or beyond the usual limits of such assays
Settings: source organism: Mammarenavirus juninense
Property name: Kd (µM)
Give just the numeric value; µM need not be written.

- EALSGFLQY: 3.95
- VAHSSLYGRY: 0.00586

Moving on to another sequence below.
q: Return value of Kd for input GEKSRCYSIY , no commentary.
a: 3.16
